target.of.assay: KPC-2 (Klebsiella pneumoniae)
Sequence (Q9F663 25-293, looked up): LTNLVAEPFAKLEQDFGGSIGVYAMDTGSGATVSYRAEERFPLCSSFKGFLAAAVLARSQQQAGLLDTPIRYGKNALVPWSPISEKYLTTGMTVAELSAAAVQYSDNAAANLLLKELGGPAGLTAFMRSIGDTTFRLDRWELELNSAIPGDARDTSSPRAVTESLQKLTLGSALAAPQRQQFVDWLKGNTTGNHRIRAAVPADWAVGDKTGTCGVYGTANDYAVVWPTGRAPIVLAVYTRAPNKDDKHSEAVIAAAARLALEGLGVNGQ
protocol.description: β-lactamase enzyme inhibition, KPC-2
cond: substrate imipenem, 300 nm; read-out: Class A KPC-2 IC50
pIC50: −log10 of the molar value.
property: pIC50

[[record]]
compound = "O=C(C[C@H]1CC[C@H](NCCNC2CCCC2)CC1)N[C@H]1Cc2cccc(C(=O)O)c2OB1O"
property = "pIC50"
measurement = "> 7.00"

[[record]]
compound = "NCCNC(=O)NC1CC(CC(=O)N[C@H]2Cc3cccc(C(=O)O)c3OB2O)C1 (stereo partly shown)"
property = "pIC50"
measurement = "> 7.00"

[[record]]
compound = "NC1CC(CC(=O)N[C@H]2Cc3cccc(C(=O)O)c3OB2O)C1 (stereo partly shown)"
property = "pIC50"
measurement = "> 7.00"


Qu. Notebook entry, KPC-2 (Klebsiella pneumoniae) assay: pIC50 of NC1CCC(O)(CC(=O)N[C@H]2Cc3cccc(C(=O)O)c3OB2O)CC1 (stereo partly shown) = ?
Ans. 6.00 to 7.00

Qu. Notebook entry, KPC-2 (Klebsiella pneumoniae) assay: pIC50 of O=C(CC1CCC(O)CC1)N[C@H]1Cc2cccc(C(=O)O)c2OB1O (stereo partly shown) = ?
Ans. > 7.00

Qu. Notebook entry, KPC-2 (Klebsiella pneumoniae) assay: pIC50 of NC[C@H]1CC[C@H](CC(=O)N[C@H]2Cc3cccc(C(=O)O)c3OB2O)CC1 = ?
Ans. 6.00 to 7.00

Qu. Notebook entry, KPC-2 (Klebsiella pneumoniae) assay: pIC50 of O=C(C[C@H]1CC[C@H](NCCN(CC2CC2)CC2CC2)CC1)N[C@H]1Cc2cccc(C(=O)O)c2OB1O = ?
Ans. > 7.00

Qu. Notebook entry, KPC-2 (Klebsiella pneumoniae) assay: pIC50 of N=C(N)N[C@H]1CC[C@H](CC(=O)N[C@H]2Cc3cccc(C(=O)O)c3OB2O)CC1 = ?
Ans. > 7.00

Qu. Notebook entry, KPC-2 (Klebsiella pneumoniae) assay: pIC50 of NCC1CCC(CC(=O)N[C@H]2Cc3cccc(C(=O)O)c3OB2O)(C[N+](=O)[O-])CC1 (stereo partly shown) = ?
Ans. 6.00 to 7.00

Qu. Notebook entry, KPC-2 (Klebsiella pneumoniae) assay: pIC50 of N=C(N)N[C@H]1CC[C@H](CCC(=O)N[C@H]2Cc3cccc(C(=O)O)c3OB2O)CC1 = ?
Ans. > 7.00

Qu. Notebook entry, KPC-2 (Klebsiella pneumoniae) assay: pIC50 of N[C@H]1CC[C@H](CC(=O)N[C@H]2Cc3cccc(C(=O)O)c3OB2O)CC1 = ?
Ans. > 7.00

Qu. Notebook entry, KPC-2 (Klebsiella pneumoniae) assay: pIC50 of CSCCN[C@H]1CC[C@H](CC(=O)N[C@H]2Cc3cccc(C(=O)O)c3OB2O)CC1 = ?
Ans. > 7.00

Qu. Notebook entry, KPC-2 (Klebsiella pneumoniae) assay: pIC50 of NCCNC[C@H]1CC[C@H](CC(=O)N[C@H]2Cc3cccc(C(=O)O)c3OB2O)CC1 = ?
Ans. > 7.00

Qu. Notebook entry, KPC-2 (Klebsiella pneumoniae) assay: pIC50 of CN(C)CC(=O)NC[C@H]1CC[C@H](CC(=O)N[C@H]2Cc3cccc(C(=O)O)c3OB2O)CC1 = ?
Ans. > 7.00

Qu. Notebook entry, KPC-2 (Klebsiella pneumoniae) assay: pIC50 of CN(C)[C@H]1CC[C@H](CC(=O)N[C@H]2Cc3cccc(C(=O)O)c3OB2O)CC1 = ?
Ans. > 7.00

Qu. Notebook entry, KPC-2 (Klebsiella pneumoniae) assay: pIC50 of O=C(C[C@H]1CC[C@H](N(Cc2ncc[nH]2)Cc2ncc[nH]2)CC1)N[C@H]1Cc2cccc(C(=O)O)c2OB1O = ?
Ans. > 7.00
